Exercise: for every item that follows, state its recorded TGI.
Tested on: MALME-3M melanoma
Assay: NCI tumour cell line growth inhibition, 48 h
Give a bare numeral; the unit µM is implied.

Suppose we examine the compound CCC(=C/[C@H](C)C/C=C/C(C)=C/[C@@H](C)C(=O)[C@@H](C)[C@H](O)[C@@H](C)CC)/C=C/[C@H]1OC(=O)C=C[C@@H]1C ; what TGI value has been reported?
0.175

What does the record list as TGI for COC(=O)[C@@H](O)[C@](O)(CCC(C)C)C(=O)O[C@@H]1C(OC)=C[C@]23CCCN2CCc2cc4c(cc2[C@H]13)OCO4 ?
1.94

###

Test system: OVCAR-4 ovarian
Assay: NCI tumour cell line growth inhibition, 48 h; in the data active = GI50 below about 0.43 µM; inactive = the rest
Log the outcome using a class from active, inactive

Hi, sorry to bother you, what did the test record for COc1ccc(C2[C@@H](c3ccccc3)C(=O)N2c2cc(OC)c(OC)c(OC)c2)cc1F (stereo not given in full) ?
active

Please let me know the test result on file for CCn1c(-c2nonc2N)nc2c(C#CC(C)(C)O)nc(OC[C@@H](N)c3ccccc3)cc21 .
inactive

Assay outcome for O=c1ccc2ccccc2cc1[O-].O=c1ccc2ccccc2cc1[O-].[O]=[U+2]=[O] : what was it?
inactive

I would be grateful if you could indicate the recorded call for Nc1ccccc1SC(CC(=O)c1ccccc1)c1cccc([N+](=O)[O-])c1 (stereo not given) .
inactive

Each molecule tested received a call. Report the one for CCN(Cc1ccc(F)cc1)c1cc(Cl)c(CO)c(Cl)c1 .
inactive

###

System: T-47D breast
Assay: NCI tumour cell line growth inhibition, 48 h
For each entry below, report its TGI value.
All answers are understood in µM, so give the number only.

Any idea what TGI was measured for S=C(N/N=C(/c1ccccc1)c1ccccn1)N(Cc1ccccn1)Cc1ccccn1 ?
2.82

Reported TGI for CCCCOC(=O)Nc1ccc(S(=O)(=O)Nc2ccccc2Cl)cc1 : what is it?
87.1

TGI for C[C@]12CCC3C4=C(CCC3C1CCC2=O)C(=O)[C@H]1O[C@H]1C4=O (stereo partly specified) ?
2.78

Value lookup for TGI; key = CCC(=C/[C@H](C)C/C=C/C(C)=C/[C@@H](C)C(=O)[C@@H](C)[C@H](O)[C@@H](C)CC)/C=C/[C@H]1OC(=O)C=C[C@@H]1C
4.88

Look up TGI: CCN(CC)C(=S)N/N=C/c1cc([N+](=O)[O-])ccc1O
39.4

Requested field: TGI. Item: N#Cc1c[nH]n2c(N=Nc3ccc(Cl)cc3)c(O)nc12
56

# query: TGI of entry O=[N+]([O-])c1cc(C=NC23CC4CC(CC(C4)C2)C3)ccc1Cl
40.8

Which TGI is listed for Cc1ccc(-n2c3nc(=O)[nH]c(=O)c-3cc3cc([N+](=O)[O-])ccc32)cc1 ?
36

# lookup: TGI of c1ccc(Sc2ncnc3ccccc23)cc1
28.4

###

System: PC-3 prostate
Test: NCI tumour cell line growth inhibition, 48 h; in the data active means GI50 below about 0.43 µM; inactive means the rest
Write down the outcome that applies. Available outcomes: active, inactive

What outcome does the record of this test show for CCN(C(=O)N1CCN(c2cc3c(cc2F)c(=O)c(C(=O)O)cn3C2CC2)CC1)c1nc(-c2ccc(Cl)cc2)cs1 ?
inactive

Which outcome did this test record for the compound COc1cccc(C(=O)NC(c2ccc(C)cc2)c2cc(Cl)c3cccnc3c2O)c1 (stereo not given) ?
active

Status in this test for Cc1csc(-c2nnc(Nc3ccc(Oc4ncccc4-c4ccnc(N)n4)cc3)c3ccccc23)c1 ?
inactive

What did this assay record as the result for COc1ccc2nc(NC(=O)CSc3nnc4n3S(=O)(=O)c3ccccc3N4c3ccccc3)sc2c1 ?
inactive

What outcome does the record of this test show for CCN(Cc1ccc(F)cc1)c1cc(Cl)c(CO)c(Cl)c1 ?
inactive

###

System: MCF7 breast
Experiment: NCI tumour cell line growth inhibition, 48 h
Exercise: state measured TGI for each of the compounds provided.
Quick note: give the figure in µM, leave out the unit.

For the compound N#CC(NCc1cccc(CNC(C#N)c2ccccc2)c1)c1ccccc1 (centres undefined) , what TGI is on record?
56.6

Param item = Nc1c(S(=O)(=O)O)cc2cc(S(=O)(=O)O)ccc2c1N=Nc1ccc(-c2ccc(N=Nc3c(N)c(S(=O)(=O)O)cc4cc(S(=O)(=O)O)ccc34)c(S(=O)(=O)O)c2)cc1 ; retrieve measured TGI.
51.4

Find the recorded TGI belonging to COCCOc1ccc(-c2nc3ccc(-c4nc5ccc(N6CCN(C)CC6)cc5[nH]4)cc3[nH]2)cc1 and report it.
11.8

Field request: TGI | item: Cc1cc(I)cc(CN(CCCN(C)C)C(C)C)c1O
36

###

Tested on: SF-295 CNS
Test: NCI tumour cell line growth inhibition, 48 h
Kindly supply the reported GI50 values for the records listed here.

Would you kindly share the measured GI50 for CCCCCCCCCCCCCCCC[N+](C)(C)Cc1ccccc1 ?
1.55 µM

Return reported GI50; argument: Cc1csc(-c2nnc(Nc3ccc(Oc4ncccc4-c4ccnc(N)n4)cc3)c3ccccc23)c1
2.98 µM

I'd like to know its GI50. The compound in question is O=C1CCCCN1c1ccccc1C#C/C=C\C#Cc1ccccc1C(F)(F)F
1.11 µM

###

System: A498 renal
Assay: NCI tumour cell line growth inhibition, 48 h; in the data active means GI50 below about 0.43 µM; inactive means the rest
Response enum: active, inactive

Hello, I am checking results. What call was entered for COc1ccc2nc(NC(=O)CSc3nnc4n3S(=O)(=O)c3ccccc3N4c3ccccc3)sc2c1 ?
inactive

Called result for COc1cccc(-c2nc(-c3ccc(NC(=O)OC(C)C)cc3)[nH]c2-c2ccnc(Br)c2)c1
inactive

Could you kindly confirm the outcome this assay logged for O=c1ccc2ccccc2cc1[O-].O=c1ccc2ccccc2cc1[O-].[O]=[U+2]=[O] ?
inactive

Tell me the recorded outcome of this test for O=C(CCCSc1nc(-c2ccccc2)cc(-c2ccccc2)n1)NO .
inactive

Returns: the outcome recorded for O=C(Nc1ccc(Oc2ccc(Nc3nc4ccccc4s3)cc2)cc1)Nc1ccc(Cl)c(C(F)(F)F)c1 in this assay.
inactive

# fetch the recorded call for Nc1ccc(C2=NNC(=O)Cc3cc4c(cc32)OCCO4)cc1Cl here
inactive

Answer briefly: the call reported for CCC(=C/[C@H](C)C/C=C/C(C)=C/[C@@H](C)C(=O)[C@@H](C)[C@H](O)[C@@H](C)CC)/C=C/[C@H]1OC(=O)C=C[C@@H]1C in this assay.
active

Could you kindly confirm the outcome this assay logged for Nc1ccccc1SC(CC(=O)c1ccccc1)c1cccc([N+](=O)[O-])c1 (stereo unspecified) ?
inactive

Look up the recorded call for COc1ccc2nc3cc(Cl)ccc3c(NCCNCC(C)O)c2c1 (stereo unspecified) in this test.
inactive

// return assay outcome for CN(C)c1cc(NN=C(c2ccc(O)cc2)c2ccc(O)cc2)c([N+](=O)[O-])cc1[N+](=O)[O-]
inactive

Kindly provide the recorded test outcome for the following compound: COc1ccc(CCN=C2NC(=O)/C(=C/c3ccc4ncccc4c3)S2)cc1
inactive

###

Tested on: EKVX NSCLC
Assay: NCI tumour cell line growth inhibition, 48 h
Can you tell me TGI for the items I'm about to list?

Look at this molecule and give its reported TGI. C/C(CCn1[nH]c(=O)ccc1=O)=N\NC(=O)C(=O)NN
> 100 µM

Using the record for Cc1ccnc(NS(=O)(=O)c2ccc(N=[N+]=[N-])cc2)n1 , report its TGI.
> 100 µM

Would you kindly share the measured TGI for COc1ncc(/C=C2\OC(=O)c3ccccc32)c(OC)n1 ?
> 100 µM

Please look up its TGI: C/C(=C\CBr)CCC(Br)C(C)(C)Br (stereo unspecified)
> 100 µM

What TGI value was documented for this molecule, N#CC(C#N)=C/C=C(\Sc1nc2ccccc2s1)c1ccc(Cl)cc1 ?
40 µM

Given the molecule COc1cccc(Nc2nc(-c3cccs3)nc3cc(OC)c(OC)cc23)c1 , what is its reported TGI?
> 100 µM

###

System: NCI-H522 lung
Assay: NCI tumour cell line growth inhibition, 48 h
For each record, write down the corresponding log10 of TGI.
Please be aware that the numbers have been log10-transformed from TGI in µM.

GET /values?readout=log10 of TGI&item= c1ccc(Sc2ncnc3ccccc23)cc1
1.46

Quick check: log10 of TGI of Cc1cc(-c2nc3ccc(F)cc3s2)ccc1NC(=O)[C@H](C)N ?
1.32

Given C[C@]12CCC3c4ccc(O)cc4CCC3C1CC[C@@]2(O)CNC(=O)/C=C/c1ccc(O)c(O)c1 (stereo not given in full) , state its recorded log10 of TGI.
0.77

What value of log10 of TGI has been recorded for this entry: O=c1ccc2ccccc2cc1[O-].O=c1ccc2ccccc2cc1[O-].[O]=[U+2]=[O]
1.75

Look up log10 of TGI for this compound: CCN1C(=O)N(c2ccccc2)C2NC(=S)N(/N=C/C=C/c3ccccc3OC)C21 (stereo not given)
-0.72

Suppose we examine the compound Nc1n[nH]c2cc(F)c([C@@H]3Nc4ccc5[nH]ncc5c4[C@H]4C5CCC(C5)[C@@H]34)cc12 (stereo not given in full) ; what log10 of TGI value has been reported?
0.32
